Overview of reported pKi across a group of compounds:
measurement.target: human Nectin-4 (Homo sapiens, UniProt Q96NY8)
Sequence (Q96NY8 32-510): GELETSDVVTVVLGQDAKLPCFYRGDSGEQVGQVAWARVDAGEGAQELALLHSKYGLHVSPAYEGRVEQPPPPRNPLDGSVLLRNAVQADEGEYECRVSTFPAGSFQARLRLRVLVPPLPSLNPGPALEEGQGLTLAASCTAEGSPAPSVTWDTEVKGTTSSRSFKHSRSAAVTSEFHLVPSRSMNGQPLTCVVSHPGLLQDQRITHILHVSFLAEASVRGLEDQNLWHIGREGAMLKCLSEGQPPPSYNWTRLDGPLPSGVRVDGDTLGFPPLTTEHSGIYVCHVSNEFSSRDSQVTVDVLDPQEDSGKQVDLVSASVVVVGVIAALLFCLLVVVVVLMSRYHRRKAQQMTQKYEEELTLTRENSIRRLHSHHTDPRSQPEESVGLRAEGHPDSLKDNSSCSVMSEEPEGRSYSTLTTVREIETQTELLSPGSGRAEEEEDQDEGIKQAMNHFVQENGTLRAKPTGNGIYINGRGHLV
measurement.description: Nectin-4 competition binding assay (fluorescence polarisation)
assay.context: competition with fluorescent peptide SEQ ID NO: 217; read-out: Ki
pKi: −log10 of the molar value.

| compound | pKi |
| --- | --- |
| CSCC[C@@H]1NC(=O)[C@@H]2CSCCC(=O)N3CN(CN(C3)C(=O)CCSC[C@H](NC(C)=O)C(=O)N3CCC[C@H]3C(=O)N[C@@H](Cc3cccc4ccccc34)C(=O)N[C@H](CCCNC(=N)N)C(=O)N2)C(=O)CCSC[C@@H](C(N)=O)NC(=O)[C@H](Cc2c[nH]c3ccccc23)NC(=O)[C@@H]2C[C@@H](O)CN2C(=O)[C@@H]2CCCN2C(=O)[C@H]([C@@H](C)O)NC(=O)[C@H](CCO)NC(=O)[C@H](Cc2c[nH]c3ccccc23)NC(=O)[C@H](CC(=O)O)NC(=O)[C@H](CCCCNC(=N)N)NC1=O [BCY8188, Ac-(SEQ ID NO: 193)] | 7.70 |
| CC[C@H](C)[C@@H]1NC(=O)[C@@H]2CCCN2C(=O)[C@H](Cc2c[nH]c3ccccc23)NC(=O)[C@H](CO)NC(=O)[C@H](Cc2c[nH]c3ccccc23)NC(=O)[C@H](CC(N)=O)NC(=O)[C@H](CCCCN)NC(=O)[C@H](CCSC)NC(=O)[C@@H]2CSCCC(=O)N3CN(CN(C3)C(=O)CCSC[C@H](NC(=O)[C@H](C)N)C(=O)N3CCC[C@H]3C(=O)N[C@@H](Cc3ccccc3)C(=O)NCC(=O)N2)C(=O)CCSC[C@@H](C(=O)N[C@@H](C)C(N)=O)NC(=O)[C@H](Cc2c[nH]c3ccccc23)NC1=O [BCY428, A-(SEQ ID NO: 1)-A] | 7.21 |
| CC[C@H](C)[C@@H]1NC(=O)[C@@H]2CCCN2C(=O)[C@H]([C@@H](C)O)NC(=O)[C@H](CO)NC(=O)[C@H](Cc2c[nH]c3ccccc23)NC(=O)[C@H](CC(N)=O)N(C)C(=O)[C@H](CCCCNC(=N)N)NC(=O)[C@H](CCSC)NC(=O)[C@@H]2CSCCC(=O)N3CN(CN(C3)C(=O)CCSC[C@H](NC(C)=O)C(=O)N3CCC[C@H]3C(=O)N[C@@H](Cc3ccccc3)C(=O)N[C@H](CC(=O)O)C(=O)N2)C(=O)CCSC[C@@H](C(N)=O)NC(=O)[C@H](Cc2c[nH]c3ccccc23)NC1=O [BCY8154, Ac-(SEQ ID NO: 174)] | 8.10 |
| CC[C@H](C)[C@@H]1NC(=O)[C@@H]2CCCN2C(=O)[C@H]([C@@H](C)O)NC(=O)[C@H](CO)NC(=O)[C@H](Cc2c[nH]c3ccccc23)NC(=O)[C@H](CC(N)=O)NC(=O)[C@H](CCCCNC(=N)N)NC(=O)[C@H](CCSC)NC(=O)[C@@H]2CSCCC(=O)N3CN(CN(C3)C(=O)CCSC[C@H](NC(C)=O)C(=O)N3CCC[C@H]3C(=O)N[C@@H](Cc3ccccc3)C(=O)N[C@H](CO)C(=O)N2)C(=O)CCSC[C@@H](C(N)=O)NC(=O)[C@H](Cc2c[nH]c3ccccc23)NC1=O [BCY7907, Ac-(SEQ ID NO: 143)] | 8.00 |
